System: Staphylococcus aureus 447
method description: broth micro-dilution MIC
Assay type: cell-based
measured attribute: MIC (µg/mL)
Answers are plain numbers, in µg/mL.

Some molecules with known MIC results, for comparison:
CNC(CC(C)C)C(=O)NC1C(=O)NC(CC(N)=O)C(=O)NC2C(=O)NC3C(=O)NC(C(=O)NC(C(=O)O)c4cc(O)cc(O)c4-c4cc3ccc4O)C(OC3CC(C)(N)C(O)C(C)O3)c3ccc(c(Cl)c3)Oc3cc2cc(c3OC2OC(CO)C(O)C(O)C2OC2CC(C)(NCc3ccc(Oc4ccc(Cl)c(Cl)c4)cc3)C(O)C(C)O2)Oc2ccc(cc2Cl)C1O (stereo not drawn) [Compound 81]    2
CNC(CC(C)C)C(=O)NC1C(=O)NC(CC(N)=O)C(=O)NC2C(=O)NC3C(=O)NC(C(=O)NC(C(=O)O)c4cc(O)cc(O)c4-c4cc3ccc4O)C(OC3CC(C)(N)C(O)C(C)O3)c3ccc(c(Cl)c3)Oc3cc2cc(c3OC2OC(CO)C(O)C(O)C2OC2CC(C)(NCC3=CCC4CC3C4(C)C)C(O)C(C)O2)Oc2ccc(cc2Cl)C1O (stereo not drawn) [Compound 170]    0.5

// next item, MIC requested
Ask: Give MIC; test system Staphylococcus aureus 447; molecule CNC(CC(C)C)C(=O)NC1C(=O)NC(CC(N)=O)C(=O)NC2C(=O)NC3C(=O)NC(C(=O)NC(C(=O)O)c4cc(O)cc(O)c4-c4cc3ccc4O)C(OC3CC(C)(N)C(O)C(C)O3)c3ccc(c(Cl)c3)Oc3cc2cc(c3OC2OC(CO)C(O)C(O)C2OC2CC(C)(NCCCCCCCCc3ccccc3)C(O)C(C)O2)Oc2ccc(cc2Cl)C1O (stereo not drawn) [Compound 176]
Reply: 1

====

Tested on: Staphylococcus aureus 447
method description: broth micro-dilution MIC
Assay type: cell-based
measured attribute: MIC (mg/L)
Answers are plain numbers, in mg/L.

Ask: Could you please provide reported MIC for CN[C@H](CC(C)C)C(=O)N[C@H]1C(=O)N[C@@H](CC(N)=O)C(=O)N[C@H]2C(=O)N[C@H]3C(=O)N[C@H](C(=O)N[C@H](C(=O)O)c4cc(O)cc(O)c4-c4cc3ccc4O)[C@H](O[C@H]3C[C@](C)(N)[C@@H](O)[C@H](C)O3)c3ccc(c(Cl)c3)Oc3cc2cc(c3O[C@@H]2O[C@H](CO)[C@@H](O)[C@H](O)[C@H]2O[C@H]2C[C@](C)(NCc3ccc(Oc4ccc(Cl)cc4)c([N+](=O)[O-])c3)[C@@H](O)[C@H](C)O2)Oc2ccc(cc2Cl)[C@H]1O ? Thanks!
Reply: 0.5

====

Tested on: vancomycin-susceptible enterococci
method description: broth micro-dilution, mean geometric MIC
Assay type: cell-based, Enterococcus faecium and Enterococcus faecalis
condition set: enterococci, 24-hour incubation
measured attribute: mean geometric MIC, Vancomycin Sensitive Strains
Remember to follow the number with its unit.

CNC(CC(C)C)C(=O)NC1C(=O)NC(CC(N)=O)C(=O)NC2C(=O)NC3C(=O)NC(C(=O)NC(C(=O)O)c4cc(O)cc(O)c4-c4cc3ccc4O)C(OC3CC(C)(N)C(O)C(C)O3)c3ccc(c(Cl)c3)Oc3cc2cc(c3OC2OC(CO)C(O)C(O)C2OC2CC(C)(NCc3ccc4ccc5cccc6ccc3c4c56)C(O)C(C)O2)Oc2ccc(cc2Cl)C1O (stereo not drawn)    0.67 µg/mL
CNC(CC(C)C)C(=O)NC1C(=O)NC(CC(N)=O)C(=O)NC2C(=O)NC3C(=O)NC(C(=O)NC(C(=O)O)c4cc(O)cc(O)c4-c4cc3ccc4O)C(OC3CC(C)(N)C(O)C(C)O3)c3ccc(c(Cl)c3)Oc3cc2cc(c3OC2OC(CO)C(O)C(O)C2OC2CC(C)(NCc3ccc(Oc4ccc(Cl)c(Cl)c4)cc3)C(O)C(C)O2)Oc2ccc(cc2Cl)C1O (stereo not drawn)    0.042 µg/mL
CNC(CC(C)C)C(=O)NC1C(=O)NC(CC(N)=O)C(=O)NC2C(=O)NC3C(=O)NC(C(=O)NC(C(=O)O)c4cc(O)cc(O)c4-c4cc3ccc4O)C(OC3CC(C)(N)C(O)C(C)O3)c3ccc(c(Cl)c3)Oc3cc2cc(c3OC2OC(CO)C(O)C(O)C2OC2CC(C)(NCc3ccc(CCc4ccccc4)cc3)C(O)C(C)O2)Oc2ccc(cc2Cl)C1O (stereo not drawn)    0.042 µg/mL

Kindly give each listed record's mean geometric MIC, Vancomycin Sensitive Strains.
1. CNC(CC(C)C)C(=O)NC1C(=O)NC(CC(N)=O)C(=O)NC2C(=O)NC3C(=O)NC(C(=O)NC(C(=O)O)c4cc(O)cc(O)c4-c4cc3ccc4O)C(OC3CC(C)(N)C(O)C(C)O3)c3ccc(c(Cl)c3)Oc3cc2cc(c3OC2OC(CO)C(O)C(O)C2OC2CC(C)(NCc3ccc(N4CCOCC4)cc3)C(O)C(C)O2)Oc2ccc(cc2Cl)C1O (stereo not drawn)
2. CC(C)CC(C(=O)NC1C(=O)NC(CC(N)=O)C(=O)NC2C(=O)NC3C(=O)NC(C(=O)NC(C(=O)O)c4cc(O)cc(O)c4-c4cc3ccc4O)C(OC3CC(C)(N)C(O)C(C)O3)c3ccc(c(Cl)c3)Oc3cc2cc(c3OC2OC(CO)C(O)C(O)C2OC2CC(C)(NCc3ccc4c(c3)OCO4)C(O)C(C)O2)Oc2ccc(cc2Cl)C1O)N(C)Cc1ccc2c(c1)OCO2 (stereo not drawn)
3. CCOC(c1ccccc1)c1ccc(CNC2(C)CC(OC3C(Oc4c5cc6cc4Oc4ccc(cc4Cl)C(OC4CC(C)(N)C(O)C(C)O4)C4NC(=O)C(NC(=O)C6NC(=O)C(CC(N)=O)NC(=O)C(NC(=O)C(CC(C)C)NC)C(O)c6ccc(c(Cl)c6)O5)c5ccc(O)c(c5)-c5c(O)cc(O)cc5C(C(=O)O)NC4=O)OC(CO)C(O)C3O)OC(C)C2O)cc1 (stereo not drawn)

Reply:
1: 1.3 µg/mL; 2: 0.87 µg/mL; 3: 0.11 µg/mL

====

Test system: Staphylococcus aureus S13E
Type: cell-based
measured attribute: MIC (µg/mL)
Give bare numbers, in µg/mL.

Reference set (3 entries):
CNC(CC(C)C)C(=O)NC1C(=O)NC(CC(N)=O)C(=O)NC2C(=O)NC3C(=O)NC(C(=O)NC(C(=O)O)c4cc(O)cc(O)c4-c4cc3ccc4O)C(OC3CC(C)(N)C(O)C(C)O3)c3ccc(c(Cl)c3)Oc3cc2cc(c3OC2OC(CO)C(O)C(O)C2OC2CC(C)(NCc3cc(-c4ccccc4)ccc3O)C(O)C(C)O2)Oc2ccc(cc2Cl)C1O (centres unmarked)    0.5
CNC(CC(C)C)C(=O)NC1C(=O)NC(CC(N)=O)C(=O)NC2C(=O)NC3C(=O)NC(C(=O)NC(C(=O)O)c4cc(O)cc(O)c4-c4cc3ccc4O)C(OC3CC(C)(N)C(O)C(C)O3)c3ccc(c(Cl)c3)Oc3cc2cc(c3OC2OC(CO)C(O)C(O)C2OC2CC(C)(NCc3ccc4ccc5cccc6ccc3c4c56)C(O)C(C)O2)Oc2ccc(cc2Cl)C1O (centres unmarked)    1
C=CCCCCCCCCNC1(C)CC(OC2C(Oc3c4cc5cc3Oc3ccc(cc3Cl)C(OC3CC(C)(N)C(O)C(C)O3)C3NC(=O)C(NC(=O)C5NC(=O)C(CC(N)=O)NC(=O)C(NC(=O)C(CC(C)C)NC)C(O)c5ccc(c(Cl)c5)O4)c4ccc(O)c(c4)-c4c(O)cc(O)cc4C(C(=O)O)NC3=O)OC(CO)C(O)C2O)OC(C)C1O (centres unmarked)    1

Your task in this section: give MIC for each listed record.
1. CNC(CC(C)C)C(=O)NC1C(=O)NC(CC(N)=O)C(=O)NC2C(=O)NC3C(=O)NC(C(=O)NC(C(=O)O)c4cc(O)cc(O)c4-c4cc3ccc4O)C(OC3CC(C)(N)C(O)C(C)O3)c3ccc(c(Cl)c3)Oc3cc2cc(c3OC2OC(CO)C(O)C(O)C2OC2CC(C)(NCCCCCCCCOc3ccc(OC)cc3)C(O)C(C)O2)Oc2ccc(cc2Cl)C1O (centres unmarked)
2. CNC(CC(C)C)C(=O)NC1C(=O)NC(CC(N)=O)C(=O)NC2C(=O)NC3C(=O)NC(C(=O)NC(C(=O)O)c4cc(O)cc(O)c4-c4cc3ccc4O)C(OC3CC(C)(N)C(O)C(C)O3)c3ccc(c(Cl)c3)Oc3cc2cc(c3OC2OC(CO)C(O)C(O)C2OC2CC(C)(NCc3cccc(Oc4ccc(Cl)cc4)c3)C(O)C(C)O2)Oc2ccc(cc2Cl)C1O (centres unmarked)
3. CCCCCCCC#Cc1ccc(CN[C@@]2(C)C[C@H](O[C@H]3[C@H](Oc4c5cc6cc4Oc4ccc(cc4Cl)[C@@H](O[C@H]4C[C@](C)(N)[C@@H](O)[C@H](C)O4)[C@@H]4NC(=O)[C@H](NC(=O)[C@@H]6NC(=O)[C@H](CC(N)=O)NC(=O)[C@H](NC(=O)[C@@H](CC(C)C)NC)[C@H](O)c6ccc(c(Cl)c6)O5)c5ccc(O)c(c5)-c5c(O)cc(O)cc5[C@@H](C(=O)O)NC4=O)O[C@H](CO)[C@@H](O)[C@@H]3O)O[C@@H](C)[C@@H]2O)cc1
4. CNC(CC(C)C)C(=O)NC1C(=O)NC(CC(N)=O)C(=O)NC2C(=O)NC3C(=O)NC(C(=O)NC(C(=O)O)c4cc(O)cc(O)c4-c4cc3ccc4O)C(OC3CC(C)(N)C(O)C(C)O3)c3ccc(c(Cl)c3)Oc3cc2cc(c3OC2OC(CO)C(O)C(O)C2OC2CC(C)(NCc3ccc(Oc4ccc(Cl)c(Cl)c4)cc3)C(O)C(C)O2)Oc2ccc(cc2Cl)C1O (centres unmarked)
5. CNC(CC(C)C)C(=O)NC1C(=O)NC(CC(N)=O)C(=O)NC2C(=O)NC3C(=O)NC(C(=O)NC(C(=O)O)c4cc(O)cc(O)c4-c4cc3ccc4O)C(OC3CC(C)(N)C(O)C(C)O3)c3ccc(c(Cl)c3)Oc3cc2cc(c3OC2OC(CO)C(O)C(O)C2OC2CC(C)(NCc3cccc(Sc4ccc(C(C)(C)C)cc4)c3)C(O)C(C)O2)Oc2ccc(cc2Cl)C1O (centres unmarked)

Reply:
[0.5, 1, 8, 0.5, 8]

The measurements presented in this section are drawn from patent US5840684A.
